measurementDescription: protein stability index of a GFP-peptide fusion (GPS, HEK-293T) (PSI 1-6); higher = more stable;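 note: 24-mer peptide tiles fused after GFP, lentivirally expressed, FACS-sorted into six equal bins by GFP/DsRed ratio, decoded by Illumina sequencing, PSI is the read-weighted mean bin number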
measurementSetup: treatment: MLN4924 1 uM, 8 h; c terminus: a fixed tail appended
Recorded protein stability index for the following sequences
Hey, just send me the number, nothing else.

These recorded examples may help you get a feel for the data.
- sequenceCode: "ETVVSYLPLSHIAAQMMDIWVPIK [ACSBG2]"
  protein stability index: 2.04
- sequenceCode: "PDCGKAFVSRYKLMRHMATHSPQK [PLAGL1]"
  protein stability index: 3
- sequenceCode: "SVSLRKAERLRAELLDLKAGGFSI [MYORG]"
  protein stability index: 2.39
- sequenceCode: "IDPRNGIPKLTPGDNPYMYPEQSK [SPATS1]"
  protein stability index: 4.5
- sequenceCode: "DDHECCERVVINISGLRFETQLKT [KCNA1]"
  protein stability index: 2.61

Q: Query (sequence): QEENKSLREENKALREENRMLSKE [CBY2] ; field requested: protein stability index
A: 5.59

Q: How about this sequence: HLYIYSIHSIPKGTEITIAFDFDY [KMT2E]
A: 3.08

Q: How about this sequence: SQQQPLRNQVVSSTNGELNVDDPT [CSNK1G1]
A: 5.27

Q: How about this sequence: GYDHLWDETLSSSHQKCPQLGGPE [PLEKHN1]
A: 4.31

Q: How about this sequence: VLQALFYLLDRAVDSFETQRNGLV [PTPN9]
A: 2.66

Q: How about this sequence: VPNAKKLRRKEQLWEKLAKQGELP [NOP53]
A: 3.51

Q: How about this sequence: NPNSSSGKGSGGNAGSYIPSYTSW [DLX1]
A: 3.43

Q: How about this sequence: SAAGPPLSEDDKLQGAASHVPEGF [EHMT1]
A: 5.21

----------
measurementDescription: protein stability index of a GFP-peptide fusion (GPS, HEK-293T) (PSI 1-6); higher = more stable
measurementSetup: treatment: MLN4924 1 uM, 8 h; c terminus: a fixed tail appended
Cut-off 3 on protein stability index, inclusive. At or above means Met; below means Not met.

Please review the following examples before continuing.
- sequenceCode: "VNKITFSEQCYYIFGDLCGNMANL [DVL3]"
  labelValue: "Not met"
- sequenceCode: "AGDEAVFAQYDSFHVDSAAEYYRL [TNXB]"
  labelValue: "Met"
- sequenceCode: "LGRSLTAVFMWPGKDSRWLPSLVL [SLC29A1]"
  labelValue: "Not met"

Turning to the following sequence.
Q: hey, is protein stability index for this one >= 3? GYREDNIPQLEDVSNFLKERTGFS [TPH1]
A: Met

----------
measurementDescription: protein stability index of a GFP-peptide fusion (GPS, HEK-293T) (PSI 1-6); higher = more stable
measurementSetup: treatment: MLN4924 1 uM, 8 h; c terminus: a fixed tail appended
experimentalReadout: protein stability index
Hey, just send me the number, nothing else.

These recorded examples may help you get a feel for the data.
- sequenceCode: "CERHEKGVLHKHQRALHKYSLMKR [SNX8]"
  protein stability index: 3.8
- sequenceCode: "PGSNLNLLTNNSGTPKDHDSPENG [ETS2]"
  protein stability index: 5.31
- sequenceCode: "EARARARANRGILQQERQRLGQRQ [DNAJC4]"
  protein stability index: 4.65
- sequenceCode: "HDTEIRKVHMKDVMSALWVSGLDS [GAN]"
  protein stability index: 2.75

Q: Query (sequence): AQTFIALCATDFKFAMYPPSMIAT [CCND2] ; field requested: protein stability index
A: 3.04

Q: How about this sequence: SYKDLDVIFGVELPGNEEFQVVKD [TENT5D]
A: 3.88
